- Test: soluble on expression in E. coli; label from the status in PepcDB or PDB records

# Entry sequence, soluble on expression in E. coli
records = [
    ("MDNSGKEAEAMALLAEAERKVKNSQSFFSGLFGGSSKIEEACEIYARAANMFKMAKNWSAAGNAFCQAAQLHLQLQSKHDAATCFVDAGNAFKKADPQEAINCLMRAIEIYTDMGRFTIAAKHHISIAEIYETELVDIEKAIAHYEQSADYYKGEESNSSANKCLLKVAGYAALLEQYQKAIDIYEQVGTNAMDSPLLKYSAKDYFFKAALCHFCIDMLNAKLAVQKYEELFPAFSDSRECKLMKKLLEAHEEQNVDSYTESVKEYDSISRLDQWLTTMLLRIKKTIQGDEEDLR", "soluble"),
    ("MAHHHHHHMSVCARALWQRSRLLCRCLIMCPTPLSTARWRAGHGWLSRKRGDAEAPPSRERRRHPHANTRHSHAHMMALTLDPRWNAMRRGIAGIGVCAVDGRGGAAAPGSCRLSLCSCLSPASSGGCGGADSALSEGGHCRECVCGMRGRLPSPKKPWNSLAGVLVGVRVTHAASVLEDRPVALGRLVSRLSEAAYKAEMLRTGKRDRDGEDRRGDAAQLLVVDAGTRVTVRTEGDPASGAAVAPSAMHMKGTIAKVNGNATYIILMEKGEVELSVASERIVALQPRKKLFQSARLVALV", "soluble"),
]

====

- Test: soluble on expression in E. coli; label from the status in PepcDB or PDB records
Result type: soluble on expression in E. coli

# Entry sequence, soluble on expression in E. coli
rows = [
    ("AIAGCASAKHVSTVQNEDDAQNGKNYQNGDAFCDEYRIKPVEEVKYMKNGEEEEQKILSKNQENLVSCLEEKSATHTARSKSNTEAAGAGHPYRINIHISESQQEFFRMLDEKIEKGRDYCSEEEDIT", "soluble"),
    ("MRKVRVGIWGFGAMGIGMANMILKKEGIEIVSVCSRSTSGKSMYDVLGIERGERPEVIINKNYEEVFREKSVDVVLLATDSFTKKAFDKIIFLLNRKINVISTAEQMAYPQADDADLAKKMDEVAKENGVSILGTGINPGFVLDLLVLALSGTCEEVTSIKAKRVNDLSPFGKSVMVEQGVGVTREEFIKGVEDKTIAGHVGFVESINMIADGLGWKLDKIEQTKEPIMTTVDRKSKYGEALAGNVAGCRQCGYGYVNGEVLIEMEHPQQIIPEAEGIKTGDYVSIKGIPNIDLQINPEIPGGVGTYAMIVNSIPLIINARPGLKTMLDIPVPRAIMGDIRNQIEVELEEESKAN", "not soluble"),
    ("MNLLKTIEKVKANWGGKYFSIEFVKNPKKVVRDWRNSGGIVVHLTMYGIPIDNIMEKIINKNTKILVVVGSEKVEGWYYYNSDYNIAIGNQPHSEVAALAIFLDRIYKGGELNIQFSDAKLSIIPQERGKKVRKNE", "soluble"),
    ("MGSDKIHHHHHHMQKIFDAHLHLWDLEKIPISWIKDDEKLEQNYDFFRMKQEYKEFEFIGAMYVEVNSDDLEKEALFALEQKKLHNLLFCLADFKHKEELSSFREVMHTSKKGAKRLFEADFEEKIEILKTFNIPFEACIKNEELGFLEKFLSKNPNLKVVLNHLGSPKINRLNEYKKDLSFLKKFQNLYIKLSIPDGFSQETPKEFIFELFAFLKENFSENKFIFGSNYPVAKITPAKWAKLIIESKIFDDLDKIFYKNALLIYKGG", "not soluble"),
    ("MTTTDKQLLYVRTEMTIPGVGTSIHIAELEPTSTTHCTLHRILELDPSNTIRGAAHGNAVAGMAAAPERTVPHPNSYANFPDITATHLLQEEFEVLWAEAVAKFSELR", "not soluble"),
]

Incoming: Any idea what its soluble on expression in E. coli is? The sequence is FTLRLNSTEMPMSDLIEVELLTGKQLLLVEPNMQAASVTQQILSQEGILVTYRSSLPENEEHYDYVLLNLAANQTYDEQSVAAWIEQAKRMAPSVIMGTPSTELALADQIMTEHQIQCLTKPLSRRKLLQS
Outgoing: not soluble

Incoming: Recorded soluble on expression in E. coli of GPGSMLEEVLKCYEEMKDPAAHQLAEAALPKLMEALGEESENSVMEVMLRCIGRCVSVHPAIMSPTNTALVCDKVMAALEVVVKRRNECLQKKATENDEDELDALEVEDEEVHLTISSMCDLIGTLLAASKEVFAAPFLEKAFPVLGEWLQASTDDFYMTRAAGILSDFVTHAPQSIVPSLPQICASSLTIASSSSDDGLLQSDFYLMNVIVQLLGSHATTNMGVDGGEYAVHVQQVAEKYFSSNLVNQEEYTHCTCNVISLYVSLLNFYGTTVLQQAATSMLTVVGKALPAKDDEIEARRIHDVVLGWVTNNHPVLQALPGSTAGFLTCVKAASPNCLSEQAKQYLASM , please.
Outgoing: soluble

Incoming: Request the reported soluble on expression in E. coli associated with MNDDTRARGGREGGLRAARDRLQPALLDRLTDDERARCTEPPDAQAIGGERLRAAVLRDLAWLLNTRNGEDGFVDWAAFAHAQASVLNYGMRPLVGKPMSGVERMSVEASIRDAIVRFEPRIAPDSVEVRSVLDAPGGAAGERRHNVLMFEIKGTLWSVPHPVEFVLRSALDLETGAMALQPAAGG
Outgoing: not soluble

Incoming: Consider the sequence shown here: MGSDKIHHHHHHMKQIKIGTCVPGPVAEEWLKGFVGKGFETFSLNFHMSLEGTDLDKLALSTEQILAGTDSKITTLGYYCNPIQYPEHRKTLEKVICTAEKFGATHVSTFAGAWEGKPVESAYEEFGKVFRELAELAEEKGVKLGIENCLMDGTWEHATCNIGFNPKAWEVMFEEVKNDNFGLEWEPTHQMVQLIDPVTELRKWCKKIVHVHGKDATIDWDAVRHGGISGAVPFVWHRMPGFGDTNWRDIISILRSNGYEDDICIEGYHDPVYRGELEMTGQLHALNYLKWCRGGEFTPTPWEK What is its recorded soluble on expression in E. coli?
Outgoing: not soluble

Incoming: Which value of soluble on expression in E. coli has been reported for MGSDKIHHHHHHMERAAFGKLVQALRREHRDEKGRVWTQEVLAERTQLPKRTIERIENGSLAHLDADILLRLADALELTIGERREFFFAATGIIEQKSATYKRSPEESLQYLIDMIRNMNVPAFVTDQYVNIIAANMITIRFFNIPMELIETAPLLPHGYNLMRVVFGTEYDFRRVVGTMWDEVARHNMQLFRAISLRVRADGYFVELLDNLMQYREFKRFWERAHLETEDTSAENFWYQYTHPVYGLLSYVSSRSQIPTSMGLLSMHTYIPLSPATTDLFAKLSTVANQDVIRLAPWPRSNG in the records?
Outgoing: not soluble

Incoming: Can you share its soluble on expression in E. coli? I mean this sequence: MDFAVMKQVKNTGLLQSEELCQYILRTSVYPREAGFLKELREANESHPDSYMSTSPLAGQLMSFVLKLVNAKKTIEVGVFTGYSLLLTALSIPDDGKITAIDFDREAYEIGLPFIRKAGVEHKINFIESDAMLALDNLLQGQESEGSYDFGFVDADKPNYIKYHERLMKLVKVGGIVAYDNTLWGGTVAQPESEVPDFMKENREAVIELNKLLAADPRIEIVHLPLGDGITFCRRLY
Outgoing: soluble

Incoming: Could you share which soluble on expression in E. coli value was measured for MISCFNRQCPTGTISYTVRAGDTLYLIAGRFNTTVEAILAANPGIVPERLYIGQVICVPYAQPPQPACPIGTSPYEIKSGDTLSKIAAKFNTTVGDILNANPGIIPEKLYVGQKICIPQPKSENPGCPTMNYYVIQKGDTLPAIAKIFNVTVQQLINANPGINPNALYVGQVICIPVAPSSVRIIVSIAAKTLSLYRDGRLVKSYPVATGKPTTPTPRGTFTIINKQVNPGGPFGTRWMGLSQPHYGIHGTNNPASIGTAASNGCIRMYNEDVNELFNLVSVGTPVTIY ?
Outgoing: soluble

====

- Test: soluble on expression in E. coli; label from the status in PepcDB or PDB records
Result type: soluble on expression in E. coli

Some sequences with known soluble on expression in E. coli results, for comparison:
# Entry sequence, Result
measured = [
    ("MSRIGLQQLNNSARNSPFGSEKATGTKQIPEPLKLTAQLKKYQPITPSPLASATTITPVLSPFDVFCDDDQEAKNVETQMFEYGTVSTQTIINVPHVQPKITEADLTSEKPTVNYLRVMADRLQMDLDDEMDRNQRLVAELGDLDEKMRKIDDDTEILLEVLADIDEEQQTDEEIGTAQL", "not soluble"),
    ("MSEGPKKAGVLGSPIAHSRSPQLHLAAYRALGLHDWTYERIECGAAELPVVVGGFGPEWVGVSVTMPGKFAALRFADERTARADLVGSANTLVRTPHGWRADNTDIDGVAGALGAAAGHALVLGSGGTAPAAVVGLAELGVTDITVVARNSDKAARLVDLGTRVGVATRFCAFDSGGLADAVAAAEVLVSTIPAEVAAGYAGTLAAIPVLLDAIYDPWPTPLAAAVGSAGGRVISGLQMLLHQAFAQVEQFTGLPAPREAMTCALAALD", "not soluble"),
    ("MGSDKIHHHHHHMSYELARVPRGEHHFHSVRVRTGDVLGLIEKTAFFELDDTLFVYPFYQRFSYQVNERHQEDGVSGSSPIHQHHSSVAASVRNYQPGDRFAALDWKTSARRSQLMTKEFEPSRSKNLFLLMDRFSSDAFEEVVSVTASILHSVLKNGAGAGLASIGKEKNIFPIQEGDQHFKHMLRHLAIAHCDAADPISRYAREELGKPSVRQADQVVVTGQLTEDMLHLAEIGGGRVTVILAKEKDAELSQAENVMIERMMKRQIRVRIMRGGRVSRVV", "not soluble"),
    ("MGSDKIHHHHHHMFVLKNVKYKDILNIEELHIPARKITVITGKSGTGKTTLLKMLNKLISPDSGEIFFKGTPLTEIDSVELRRKVVMLPQFPVVFPGNVKENLLMGLKFSGKKIPHDEELRKILKFVMLEKDLNDDPEKFSGGEKQRLALARVLLMDPEVLLLDEPTSSLDEKTGIEIIKKVSNFAKSRGKTLVMVTHNPELRKFADVLIELKNGRVL", "not soluble"),
]

Incoming: What soluble on expression in E. coli value was documented for this sequence, MAHHHHHHMKTKVELKFLGGLESYLANKSKNYVSLEIESEEFNFENLIAYIRNHIIVDRKDVFSDFVMSDGNVKSCNVMIDDKEYSNYNLSDKGKIKPGIIVLINEYDWEILDTYTYKIKNNDKICFLSTLHGG ?
Outgoing: soluble

Incoming: Tell me the measured soluble on expression in E. coli of SNAMRIGHGFDVHKFGENGSGPLIIGGVRIPYEKGLLAHSDGDVALHAATDALLGAAALGDIGKLFPDTDPAFKGADSRGLLREAYRRILAKGYKLGNLDITIIAQAPKMAPHIPQMRVNLAEDLQCHMDDINVKATTTEQLGFTGRGEGIACEAVVLLVNVEQG , please.
Outgoing: soluble

Incoming: # input sequence: MGSDKIHHHHHHMRDSVFKLSYFLSANEKFHIARVNITSSQDLSLHSHDYAEILWVEKGTGIHHVNGHQFRLSPGDLIMVRPKDRHTFSSSGKGIVIVNVAFPVETLDYFRQRYFEWSNLYFWTTGMFPFQMRLSRDIVKRLSSRAEEAMKYGRSNIQLDSLLLFIFRQITANEKVEDSSEIPVWLFNAIQKFNSPEFFIQGIAGFVTLCDRNIDYVNRIVKLHFHKSLTDLINEFKMQYATTQLSITSMPIKEICTNCGFRNLGHFYKIFRSVYNQTPYEYRRINQLIV ; wanted: its soluble on expression in E. coli
Outgoing: not soluble
